# ASSAY_SYSTEM: T1, 4Ig-B7H3 (human, UniProt Q5ZPR3 27-461, limits assumed)
# T1 construct: also called 4Ig-B73H3
# T1 sequence (looked up): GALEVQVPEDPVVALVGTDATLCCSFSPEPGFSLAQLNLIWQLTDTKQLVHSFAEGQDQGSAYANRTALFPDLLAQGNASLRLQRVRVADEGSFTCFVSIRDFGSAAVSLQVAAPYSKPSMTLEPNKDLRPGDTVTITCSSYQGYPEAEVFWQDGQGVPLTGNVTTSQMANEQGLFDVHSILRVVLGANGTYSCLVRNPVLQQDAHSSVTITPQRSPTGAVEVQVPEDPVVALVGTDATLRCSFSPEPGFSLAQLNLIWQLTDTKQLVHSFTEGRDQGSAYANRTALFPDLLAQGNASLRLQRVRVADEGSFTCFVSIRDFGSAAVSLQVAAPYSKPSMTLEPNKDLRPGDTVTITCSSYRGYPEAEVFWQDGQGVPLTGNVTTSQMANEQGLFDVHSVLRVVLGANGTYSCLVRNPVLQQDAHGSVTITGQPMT
# METHOD_NOTES: SPR, IgG on 4Ig-B7-H3 without Fc fusion
Exercise: state measured pKd for each of the binders provided.
Numbers only, as −log10 of the molar value.

Guide cases for pKd, answers given:
INSERT INTO measurements (binder, property_measured, recorded_measurement) VALUES
  ('mouse/human chimeric 8H9 (ch8H9) IgG1 (antibody, V domains shown) VH: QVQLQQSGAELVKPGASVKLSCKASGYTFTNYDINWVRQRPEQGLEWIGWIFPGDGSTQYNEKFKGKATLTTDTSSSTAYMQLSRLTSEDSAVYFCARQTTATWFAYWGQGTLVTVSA VL: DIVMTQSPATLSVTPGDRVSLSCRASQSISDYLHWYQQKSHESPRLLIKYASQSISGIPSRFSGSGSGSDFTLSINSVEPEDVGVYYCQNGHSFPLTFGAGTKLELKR', 'pKd', 8.11),
  ('ch8H9 6.1 IgG (ch8H9 + 6 affinity maturation mutations) (antibody, V domains shown) VH: QVQLQQSGAELVKPGASVKLSCKTSGYTFTNYDINWVRQRPGQGLEWIGWIFPGDDSTQYNEKFKGKATLTTDTSSSTAYMQLSRLTSEDSAVYFCARQTTGTWFAYWGQGTLVTVSA VL: DIVMTQSPATLSVTPGDRVTLSCRASQSISDYLYWYQQKSHESPRLLIKYASQSISGIPSRFSGSGSGSDFTLSINSVEPEDVGVYYCQNGHSFPLTFGAGTKLELKR', 'pKd', 8.43),
  ('murine 8H9 (m8H9) IgG1 monoclonal antibody (antibody, V domains shown, 131I-labelled in the LAN-1 immunoreactivity assay; the label is not carried by the letters., also called MAb 8H9) VH: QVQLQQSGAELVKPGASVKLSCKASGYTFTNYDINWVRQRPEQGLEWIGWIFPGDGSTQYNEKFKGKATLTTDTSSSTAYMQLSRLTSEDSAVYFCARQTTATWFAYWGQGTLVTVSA VL: DIVMTQSPATLSVTPGDRVSLSCRASQSISDYLHWYQQKSHESPRLLIKYASQSISGIPSRFSGSGSGSDFTLSINSVEPEDVGVYYCQNGHSFPLTFGAGTKLELK', 'pKd', 8.05),
  ('hu8H9 3.1 IgG1 (antibody, V domains shown, also called clone 3.1) VH: QVQLVQSGAEVVKPGASVKLSCKTSGYTFTNYDINWVRQRPGQGLEWIGWIFPGDDSTQYNEKFKGKATLTTDTSTSTAYMELSSLRSEDTAVYFCARQTTGTWFAYWGQGTLVTVSS VL: EIVMTQSPATLSVSPGERVTLSCRASQSISDYLYWYQQKSHESPRLLIKYASQSISGIPARFSGSGSGSEFTLTINSVEPEDVGVYYCQNGHSFPLTFGQGTKLELKR', 'pKd', 7.89);

Task: Quote pKd reported for hu8H9 H3L3 IgG1 (antibody, V domains shown) VH: QVQLVQSGAEVVKPGASVKLSCKASGYTFTNYDINWVRQRPEQGLEWIGWIFPGDGSTQYNEKFKGKATLTTDTSTSTAYMELSSLRSEDTAVYFCARQTTATWFAYWGQGTLVTVSS VL: EIVMTQSPATLSVSPGERVSLSCRASQSISDYLHWYQQKSHESPRLLIKYASQSISGIPARFSGSGSGSEFTLTINSVEPEDVGVYYCQNGHSFPLTFGQGTKLELKR please.
Output: 7.48
